Here, each record is paired with measured IC50 data.
tested on: KB; test: Antiproliferative activity against human KB cells after 72 hrs by MTT assay; assay type: functional, cell-based
measuredEndpoint: IC50

compound	measuredEndpoint	observed
Cc1nc2ccccc2c2nc(Oc3ccc([N+](=O)[O-])cc3Cl)n(-c3ccc(Cl)cc3)c(=O)c12	IC50	4.9 µM
Cc1nc2ccccc2c2ncn(N)c(=O)c12	IC50	> 50 µM
CCC(C)n1cnc2c(c(C)nc3ccccc32)c1=O (stereo unspecified)	IC50	> 50 µM
CCCCn1cnc2c(c(C)nc3ccccc32)c1=O	IC50	> 50 µM
CCn1cnc2c(c(C)nc3ccccc32)c1=O	IC50	> 50 µM
Cc1nc2ccccc2c2nc(Nc3ccccc3)n(N)c(=O)c12	IC50	30.3 µM
Cc1nc2ccccc2c2ncn(CCN)c(=O)c12	IC50	39.8 µM
Cc1nc2ccccc2c2ncn(CCO)c(=O)c12	IC50	> 50 µM
Cc1nc2ccccc2c2nc(Oc3ccc(Cl)cc3Cl)n(-c3ccccc3)c(=O)c12	IC50	22.8 µM
Cc1cc(Oc2nc3c(c(C)nc4ccccc43)c(=O)n2-c2ccc(F)cc2)ccc1Cl	IC50	> 50 µM
Cc1nc2ccccc2c2nc(Nc3ccc(Cl)cc3)n(N)c(=O)c12	IC50	> 50 µM
